All values here come from patent US20240209086A1.

subject.of.test: T1, canine CD20 on cells (HEK293, MDCK II, CLBL-1 or native B cells) (canine, UniProt Q3C2E2 1-297)
T1 construct: also called dCD20; cCD20
T1 chain: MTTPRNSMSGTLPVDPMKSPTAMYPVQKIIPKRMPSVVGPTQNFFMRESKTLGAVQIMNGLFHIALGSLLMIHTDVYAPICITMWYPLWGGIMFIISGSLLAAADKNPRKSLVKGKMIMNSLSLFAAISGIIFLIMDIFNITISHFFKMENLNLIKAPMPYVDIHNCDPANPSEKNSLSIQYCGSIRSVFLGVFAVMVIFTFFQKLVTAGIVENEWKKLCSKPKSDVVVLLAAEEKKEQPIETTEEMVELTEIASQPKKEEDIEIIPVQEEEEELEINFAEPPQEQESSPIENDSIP
measurement.description: flow cytometry, canine CD20 HEK293 cells, 10 µg/ml, FITC anti-canine IgG
parameter: binding result

PMX258 (monospecific anti-canine CD20, canine IgG-B, lambda C5) (antibody, V domains shown) VH: EVQLVESGGDLVKPGGSLRLSCVASGLTFSRYYMNWVRQAPGKGLQWVAYINTGGSSTSYADAVKGRFTISRDNAKNTLYLQMNSLRAEDTAVYYCASFDYWGQGTLVTVSS VL: SYVLTQLPSKNVTLKQPAHITCGGDNIGSKSVHWYQQKLGQAPVLIIYYDSSRPTGIPERFSGANSGNTATLTISGALAEDEADYYCQVWDSSANVFGGGTHLTVLG : binds
PMX257 (monospecific anti-canine CD20, canine IgG-B, lambda C5) (antibody, V domains shown) VH: EVQLVESGGDLVKPGGSLRLSCVASGFTFSSYHMSWVRQAPGKGLQWVAYINSGGSSTSYADAVKGRFTISRDNAYSTLFLQMNNLRAEDTAVYYCTTLDSWGQGTLVTVSS VL: SYVLTQLPSKNVTLKQPAHITCGGDNIGSKSVHWYQQKLGQAPVLIIYYDSSRPTGIPERFSGANSGNTATLTISGALAEDEADYYCQVWDSSANVFGGGTHLTVLG : binds
